Source: ChEMBL document CHEMBL1140787

Experiment: Volume of distribution at steady state in Beagle dog at 2 mg/kg, iv
Format: ADME, organism-based, Canis lupus familiaris
Parameters: dose 2 mg/kg, route intravenous
Conditions: in vivo, read-out: Vdss
Measurement type: Vd

What the record says about `Cc1cc(COc2ccc(C(=O)N[C@@H]3CCOC[C@@H]3C(=O)NO)cc2)c2ccccc2n1` : Vd is 1.6 L/kg

* * *

Assay: Tmax in Sprague-Dawley rat at 40 mg/kg, po
Format: ADME, organism-based
Design: dose 40 mg/kg, route oral
Conditions: in vivo
Measurement type: Tmax (min)
One number for each entry, in min.

Given item `Cc1cc(COc2ccc(C(=O)N[C@@H]3CCOC[C@@H]3C(=O)NO)cc2)c2ccccc2n1` , the value recorded as its Tmax is 24

* * *

Assay: Clearance in Sprague-Dawley rat at 2 mg/kg, iv
Type: ADME, organism-based
Design: dose 2 mg/kg, route intravenous
Settings: in vivo
Measurement type: clearance (mL/min/kg)
One number for each entry, in mL/min/kg.

clearance in this record for `Cc1cc(COc2ccc(C(=O)N[C@@H]3CCOC[C@@H]3C(=O)NO)cc2)c2ccccc2n1` : 11.7

* * *

Molecular target: Stromelysin-1 (Homo sapiens, UniProt P08254)
Sequence (P08254 whole entry): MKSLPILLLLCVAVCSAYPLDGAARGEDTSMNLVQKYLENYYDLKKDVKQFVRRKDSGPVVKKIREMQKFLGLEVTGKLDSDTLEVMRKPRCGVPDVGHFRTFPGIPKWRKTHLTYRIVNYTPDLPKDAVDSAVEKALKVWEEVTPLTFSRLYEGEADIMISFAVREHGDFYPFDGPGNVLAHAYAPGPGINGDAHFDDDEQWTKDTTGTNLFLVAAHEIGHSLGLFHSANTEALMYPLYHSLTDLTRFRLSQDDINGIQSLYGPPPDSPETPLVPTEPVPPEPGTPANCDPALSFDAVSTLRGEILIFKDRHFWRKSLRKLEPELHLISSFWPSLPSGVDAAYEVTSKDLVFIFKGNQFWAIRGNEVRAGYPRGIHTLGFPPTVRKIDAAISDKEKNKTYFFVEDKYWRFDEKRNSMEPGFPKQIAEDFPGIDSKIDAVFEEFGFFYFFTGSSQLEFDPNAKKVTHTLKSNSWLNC
Measurement type: Ki

Form: compound = `Cc1cc(COc2ccc(C(=O)N[C@@H]3CCOC[C@@H]3C(=O)NO)cc2)c2ccccc2n1` ; Ki = < 0.1 µM

* * *

Answer each item with its documented pIC50.
Test system: Blood
Assay: Inhibition of LPS-stimulated TNFalpha release in human whole blood
Assay type: functional, tissue-based
Numbers only, as −log10 of the molar value.

Structure string: Cc1cc(COc2ccc(C(=O)N[C@@H]3CNCC[C@@H]3C(=O)NO)cc2)c2ccccc2n1
System name: Blood
Measurement type: pIC50
Numeric readout: 6.73

Please look at the items below and tell me pIC50 for each one, in order.
1. Cc1cc(COc2ccc(NC(=O)[C@@H]3[C@@H](C(=O)NO)CCCN3C)cc2)c2ccccc2n1
2. Cc1cc(COc2ccc(C(=O)N[C@@H]3CCNC[C@@H]3C(=O)NO)cc2)c2ccccc2n1

Completion:
[7.70, 6.21]

* * *

Assay: Volume of distribution at steady state in Sprague-Dawley rat at 2 mg/kg, iv
Type: ADME, organism-based
Parameters: dose 2 mg/kg, route intravenous
Conditions: in vivo, read-out: Vdss
Measurement type: Vd

Vd reading for `Cc1cc(COc2ccc(C(=O)N[C@@H]3CCOC[C@@H]3C(=O)NO)cc2)c2ccccc2n1` : 0.4 L/kg

* * *

Give measured Papp for each item. Keep answers brief.
Assay: Permeability across human Caco-2 cell membrane
Assay type: ADME, cell-based
Give bare numbers, in ×10⁻⁶ cm/s.

Please review the following examples before continuing.
Compound: Cc1cc(COc2ccc(C(=O)N[C@@H]3CN(C(C)(C)C)CC[C@@H]3C(=O)NO)cc2)c2ccccc2n1
Papp (×10⁻⁶ cm/s): 0.6
--
Compound: Cc1cc(COc2ccc(C(=O)N[C@@H]3CN(CCN(C)C)CC[C@@H]3C(=O)NO)cc2)c2ccccc2n1
Papp (×10⁻⁶ cm/s): 0.1

Please supply Papp for each of the following items, keeping them in order.
1. Cc1cc(COc2ccc(C(=O)N[C@@H]3CCNC[C@@H]3C(=O)NO)cc2)c2ccccc2n1
2. Cc1cc(COc2ccc(C(=O)N[C@@H]3CCOC[C@@H]3C(=O)NO)cc2)c2ccccc2n1
3. Cc1cc(COc2ccc(C(=O)N[C@@H]3COCC[C@@H]3C(=O)NO)cc2)c2ccccc2n1
4. Cc1cc(COc2ccc(C(=O)NC3CCC3C(=O)NO)cc2)c2ccccc2n1 (centres undefined)
5. Cc1cc(COc2ccc(C(=O)N[C@@H]3CCCO[C@@H]3C(=O)NO)cc2)c2ccccc2n1
6. Cc1cc(COc2ccc(C(=O)N[C@@H]3CNCC[C@@H]3C(=O)NO)cc2)c2ccccc2n1
7. Cc1cc(COc2ccc(C(=O)N[C@@H]3CCCC[C@@H]3C(=O)NO)cc2)c2ccccc2n1

Completion:
1: 0.2; 2: 2.3; 3: 0.4; 4: 0.4; 5: 0.06; 6: 0.2; 7: 3.4
